Values were extracted from PubChem BioAssay (NCI).

Each entry below lists one item and its recorded growth value.
tested on: A549/ATCC NSCLC; experiment: NCI-60 one-dose screen, 48 h (100 = growth as untreated, 0 = no growth, -100 = all killed); conditions: 10 µM unless noted
This is part of a sample that, as a whole, favours compounds with a hit. Of some 83,000 tested, about 20% had one in any assay.
Test readout: growth (%)

[[record]]
compound = "COC(=O)c1nc(-c2ccccc2)oc1S(=O)(=O)N(C)CCO"
study_system = "A549/ATCC NSCLC"
data_value = 91.2

[[record]]
compound = "CON1CCC[C@]2(C)[C@H]3CC[C@@H]4[C@H]5[C@@H](O)C(C)(C)CC[C@]5(CO)CC[C@@]4(C)[C@]3(C)CC[C@H]2C1(C)C"
study_system = "A549/ATCC NSCLC"
data_value = 94.2

[[record]]
compound = "C/C=C(/C)C(=O)O[C@@H]1CC(C)(C)CC2C34OC(=O)[C@@]21CC[C@@]3(C)[C@]1(C)CCC2C(C)(C)C(=O)CC[C@]2(C)C1C[C@@H]4Cl (stereo not given in full)"
study_system = "A549/ATCC NSCLC"
data_value = 91

[[record]]
compound = "Cc1nc(-n2[nH]c(=O)ccc2=O)sc1N=Nc1ccccc1"
study_system = "A549/ATCC NSCLC"
data_value = 104

[[record]]
compound = "N#CC1C(=O)c2ccccc2C1c1ccccc1 (stereo not given)"
study_system = "A549/ATCC NSCLC"
data_value = 102

[[record]]
compound = "O=c1ccc2nc(-c3ccccn3)nn(-c3ccccc3)c-2c1"
study_system = "A549/ATCC NSCLC"
data_value = 101

[[record]]
compound = "COc1c(O)c(O)cc2c3c(oc12)CC(c1ccc2c(c1)OCO2)CC3=O (stereo not given)"
study_system = "A549/ATCC NSCLC"
data_value = 60.7

[[record]]
compound = "Cc1ccc(-c2nc3nc(-c4ccc(F)cc4)nc(N4CCCNCC4)c3o2)cc1"
study_system = "A549/ATCC NSCLC"
data_value = -82.4

[[record]]
compound = "Nc1nc(N)c2c(n1)NC(c1cccc(Nc3ccnc4cc(C(F)(F)F)ccc34)c1)CC(c1ccc(F)cc1)=N2 (stereo not given)"
study_system = "A549/ATCC NSCLC"
data_value = 40.1

[[record]]
compound = "CCn1cc(C(=O)NN=C2CCCC2)c(=O)c2ccc(C)nc21"
study_system = "A549/ATCC NSCLC"
data_value = 90.3


====

System: UO-31 renal
Experiment: NCI-60 one-dose screen, 48 h
Details: 10 µM unless noted
Protocol: Growth inhibition of the UO-31 human tumor cell line is measured as a screen for anti-cancer activity. Cells are grown in 96 well plates and exposed to the test compound for 48 hours. Compounds are tested at a single concentration, which is 10^-5 M for most compounds. The reported endpoint is percent growth (GI% or GIPRCNT), where numbers from 0 - 100% represent growth inhibition, and numbers from -100% - 0 represent cell death. For example, a value of 40 represents 60% growth inhibition. […]
About 83,000 compounds went through this panel and 20% of them were active in at least one assay; those are over-represented in the sample as a whole. Active and inactive are the calls of the source. How the source made its calls: active means growth percent below 10; inactive means the rest.
Classes used: TRUE (active), FALSE (inactive)

[[record]]
compound = "COc1ccc(-c2ccccc2)cc1-c1c(Nc2cc(Cl)cc(Cl)c2O)c(=O)c1=O"
discrete_label = "TRUE"

[[record]]
compound = "CSc1nnc(-c2cc3c([nH]c4ccccc43)c(-c3cccc(O)c3)n2)n1-c1ccc(C)cc1"
discrete_label = "FALSE"

[[record]]
compound = "Nc1nc(Nc2cccnc2)sc1C(=O)c1ccccc1F"
discrete_label = "TRUE"

[[record]]
compound = "CN(Cc1ccccc1)c1nc(Cl)c(C2CC(c3ccc(F)cc3)=NN2C=O)s1 (stereo not given)"
discrete_label = "FALSE"

[[record]]
compound = "COc1ccc(C2Nc3nc(SC)nc(N)c3N=C3c4ccccc4CCC32)cc1 (stereo not given)"
discrete_label = "FALSE"

[[record]]
compound = "O=C1C(N2CCOCC2)=C(I)C(=O)c2ncccc21"
discrete_label = "FALSE"

[[record]]
compound = "Cc1ccc2[nH]c(=S)[nH]c(=O)c2c1"
discrete_label = "FALSE"

[[record]]
compound = "NC(N)=NC(N)=NCCCc1ccco1"
discrete_label = "FALSE"

[[record]]
compound = "COc1ccc(C/C(C)=C(/c2ccc(OCCN3CCCCCC3)cc2)c2ccc(OC(=O)c3ccccc3)cc2)cc1"
discrete_label = "FALSE"

[[record]]
compound = "Fc1ccccc1-c1cnn2cc(-c3ccccc3)cnc12"
discrete_label = "FALSE"

[[record]]
compound = "Nc1ccc(-c2ccc(N)c(Br)c2)cc1Br"
discrete_label = "FALSE"

[[record]]
compound = "C[C@@H]1CC[C@@H]2[C@@H]1[C@H](OC(=O)/C=C/c1ccccc1)[C@]1(c3ccccc3)C[C@@H](NC(=O)CO)[C@@]2(C)O1"
discrete_label = "FALSE"

[[record]]
compound = "Nc1nc(Nc2ccc(F)cc2)nn1C(=O)c1cc(Cl)ccc1Cl"
discrete_label = "FALSE"

[[record]]
compound = "Clc1ccc2c(NCCN3CCN(c4ccnc(N5CCCC5)n4)CC3)ccnc2c1"
discrete_label = "FALSE"

[[record]]
compound = "c1ccc(-c2cc(-c3cc(-c4ccccc4)on3)no2)cc1"
discrete_label = "FALSE"

[[record]]
compound = "CCCCn1c(C(=O)c2c[nH]c3ccccc23)n[nH]c1=S"
discrete_label = "FALSE"

[[record]]
compound = "Cc1ccc(-c2nc(SCC(=O)c3ccc(C#N)cc3)[nH]c(=O)c2C#N)cc1"
discrete_label = "FALSE"

[[record]]
compound = "COc1ccc(/C(C)=C(\\c2ccc(OCCN3CCOCC3)cc2)c2ccc(OC(=O)C3CCCCC3)cc2)cc1"
discrete_label = "FALSE"

[[record]]
compound = "COc1cc(F)c(/C=C/c2cc(/C=C/c3cc(OC)c(OC)cc3F)n(-c3cc(F)cc(F)c3)n2)cc1OC"
discrete_label = "FALSE"

[[record]]
compound = "CCCCC(NC(=O)CN1C(=O)/C(=C/C(C)=C/c2ccccc2)SC1=S)C(=O)O (stereo not given)"
discrete_label = "FALSE"

[[record]]
compound = "O=[N+]([O-])c1cc(C(F)(F)F)ccc1Sc1ccc(C(F)(F)F)cc1[N+](=O)[O-]"
discrete_label = "FALSE"

[[record]]
compound = "CCOC(=O)CC1CSC(c2cccc(Cl)c2)=N1 (stereo not given)"
discrete_label = "FALSE"

[[record]]
compound = "OB(O)c1ccsc1-c1nc2ccc3[nH]ncc3c2c2c1CCCC2"
discrete_label = "FALSE"

[[record]]
compound = "NC1=CC(=O)c2cccnc2C1=O"
discrete_label = "TRUE"

[[record]]
compound = "O=C(/C=C/c1ccc(Cl)s1)c1ccc(Cl)s1"
discrete_label = "FALSE"

[[record]]
compound = "CC(C)=CCc1cc(O)c(O)c2oc3cc(O)cc(O)c3c(=O)c12"
discrete_label = "FALSE"

[[record]]
compound = "O=C(/C=C/c1ccc(F)cc1)Nc1ncc(Cc2ccc(F)cc2)s1"
discrete_label = "FALSE"

[[record]]
compound = "CCCCCCCCCCCCC[C@H](O)C[C@H](O)[C@H](C)N"
discrete_label = "FALSE"

[[record]]
compound = "COC1/C=C/OC2(C)Oc3c(C)c(O)c4c(O)c(c(C=NOC(c5ccccc5)c5ccccc5)c(O)c4c3C2=O)NC(=O)/C(C)=C/C=C/C(C)C(O)C(C)C(O)C(C)C(OC(C)=O)C1C (stereo not given)"
discrete_label = "FALSE"

[[record]]
compound = "CC(=O)OC[C@]12CCC(C)(C)C=C1[C@H]1CC[C@@H]3[C@@]4(C)CCCNC(C)(C)[C@@H]4CC[C@@]3(C)[C@]1(C)CC2"
discrete_label = "FALSE"

[[record]]
compound = "N#Cc1ccccc1OCC(=O)Nc1nc2c(s1)COc1ccccc1-2"
discrete_label = "FALSE"

[[record]]
compound = "O=C(c1cccc(Br)c1)N1CCN(c2ccnc3cc(Cl)ccc23)CC1"
discrete_label = "FALSE"

[[record]]
compound = "COc1ccc(C2=C(CN)C(O)NC(=NCC(=O)c3ccc4ccccc4c3)N2)cc1 (stereo not given)"
discrete_label = "FALSE"

[[record]]
compound = "Cc1ccc(S(=O)(=O)OC[C@@]2(C)CC[C@]3(C)CC[C@]4(C)C(=CC[C@@H]5[C@@]6(C)CCCNC(C)(C)[C@@H]6CC[C@]54C)[C@@H]3C2)cc1"
discrete_label = "TRUE"

[[record]]
compound = "CC1(C)C(N)=Nc2cc(OCCCCN3Cc4ccccc4C3)c(OCC3CC3)cc21"
discrete_label = "FALSE"

[[record]]
compound = "CCn1cc(C(=O)NN=C2CCCC2)c(=O)c2ccc(C)nc21"
discrete_label = "FALSE"

[[record]]
compound = "CN(C)C(=O)c1cc2cnc(Nc3ccc(-c4csc5c(=S)cc(N6CCOCC6)oc45)cc3)nc2n1C1CCCC1"
discrete_label = "TRUE"

[[record]]
compound = "COc1cccc(NC(=O)c2sc3nc(C)c(C(O)c4ccccc4)cc3c2N)c1 (stereo not given)"
discrete_label = "FALSE"

[[record]]
compound = "CC(=O)c1c(C)nc2ccccc2c1/C=C/c1cccc(C)c1"
discrete_label = "FALSE"

[[record]]
compound = "N=C1/C(=C2\\NC3C=CC=CC3S2)C(c2ccc(Cl)cc2)C2C(=O)N(c3ccccc3)C(=S)N12 (stereo not given)"
discrete_label = "FALSE"

